Tested on: A549 NSCLC
Test: NCI tumour cell line growth inhibition, 48 h
Where a SMILES comes first, the peptide text is derived from it. [ ]: non-standard residue; d: D form. The star is where a group is joined. NMeF = CN[CH](Cc1ccccc1)C(=O)O; NMeV = CN[CH](C(=O)O)C(C)C; Boc = CC(C)(C)OC(=O)*; OBn = c1ccc(CO*)cc1
Listed here are compounds together with their documented TGI.
Endpoint name: TGI

* CC(C)C(NC(=O)OC(C)(C)C)C(=O)N(C)C(Cc1ccccc1)C(=O)N(C)C(C(=O)OCc1ccccc1)C(C)C (stereo not drawn) (Boc-Val-[NMeF]-[NMeV]-OBn; configuration not given here) | > 100 µM
* CC1(C)CC[C@]2(C(=O)O)CC[C@]3(C)C(=CCC4=C5C[C@H](O)[C@H](O)[C@@](C)(CO)[C@@]5(C)CC[C@]43C)[C@@H]2C1 | > 100 µM
* COc1ccc(Cc2cc(Cc3ccc(OC)cc3)cc(Cc3ccc(OC)cc3)c2)cc1 | > 100 µM
